Target: T1, HLA-DR DRB1*0401 (human)
T1 chain 1: not shown
T1 chain 2: not shown
Assay: radioligand competition, purified HLA-DR
Details: remark: other sources report otherwise
TEST READOUT: IC50 (nM)

1) KLCIYTDNSIRPEEL [Peptide 9019.0159] | 95
